Target: Adenosine receptor A2a (Homo sapiens)
Experiment: Displacement of [3H]ZM2421385 from adenosine A2A receptor expressed in human HeLa cell membranes at 1 uM incubated for 30 mins by scintillation counting method
Conditions: Cell membrane
measurement-kind: inhibition (%)

[[record]]
compound = "CCOC(=O)C1=C(C)N(C)C(=O)NC1c1ccco1 (racemic)"
unit_annotation = "%"
experimental_result = 1

[[record]]
compound = "CC1=C(C(=O)C2CC2)C(c2cccs2)NC(=O)N1 (racemic)"
unit_annotation = "%"
experimental_result = 1

[[record]]
compound = "CC1=C(C(=O)OC(C)(C)C)C(c2ccsc2)NC(=O)N1C (racemic)"
unit_annotation = "%"
experimental_result = 1

[[record]]
compound = "CCSC(=O)C1=C(C)NC(=O)NC1c1ccsc1 (racemic)"
unit_annotation = "%"
experimental_result = 1

[[record]]
compound = "CCCOC(=O)C1=C(C)NC(=S)NC1c1cccs1 (racemic)"
unit_annotation = "%"
experimental_result = 1

[[record]]
compound = "CC1=C(C(=O)OCc2ccccc2)C(c2ccco2)NC(=S)N1 (racemic)"
unit_annotation = "%"
experimental_result = 12

[[record]]
compound = "CC1=C(C(=O)CC(C)C)C(c2ccsc2)NC(=O)N1 (racemic)"
unit_annotation = "%"
experimental_result = 19

[[record]]
compound = "CC1=C(C(=O)CC(C)C)C(c2cccs2)NC(=O)N1 (racemic)"
unit_annotation = "%"
experimental_result = 1

[[record]]
compound = "CCCOC(=O)C1=C(C)NC(=O)NC1c1cccs1 (racemic)"
unit_annotation = "%"
experimental_result = 30

[[record]]
compound = "CCNC(=O)C1=C(C)NC(=O)NC1c1ccoc1 (racemic)"
unit_annotation = "%"
experimental_result = 2

[[record]]
compound = "CCC(CC)OC(=O)C1=C(C)NC(=O)NC1c1ccco1 (racemic)"
unit_annotation = "%"
experimental_result = 3

[[record]]
compound = "CC1=C(C(=O)OC(C)(C)C)C(c2cccs2)NC(=O)N1 (racemic)"
unit_annotation = "%"
experimental_result = 10

[[record]]
compound = "CC1=C(C(=O)OC(C)(C)C)C(c2cccs2)NC(=O)N1C (racemic)"
unit_annotation = "%"
experimental_result = 12

[[record]]
compound = "CC1=C(C(=O)OC2CCC2)C(c2cccs2)NC(=O)N1 (racemic)"
unit_annotation = "%"
experimental_result = 26

[[record]]
compound = "CC1=C(C(=O)SC(C)C)C(c2cccs2)NC(=O)N1 (racemic)"
unit_annotation = "%"
experimental_result = 1

[[record]]
compound = "CCNC(=O)C1=C(C)NC(=O)NC1c1cccs1 (racemic)"
unit_annotation = "%"
experimental_result = 1

[[record]]
compound = "COC(=O)C1=C(C)NC(=S)NC1c1ccoc1 (racemic)"
unit_annotation = "%"
experimental_result = 1

[[record]]
compound = "CCC(CC)OC(=O)C1=C(C)NC(=O)NC1c1cccs1 (racemic)"
unit_annotation = "%"
experimental_result = 4

[[record]]
compound = "CC1=C(C(=O)OC(C)C)C(c2ccco2)NC(=O)N1C (racemic)"
unit_annotation = "%"
experimental_result = 37

[[record]]
compound = "CC1=C(C(=O)OC(C)(C)C)C(c2ccoc2)NC(=O)N1 (racemic)"
unit_annotation = "%"
experimental_result = 9

[[record]]
compound = "CC1=C(C(=O)OC2CCCCC2)C(c2ccsc2)NC(=O)N1 (racemic)"
unit_annotation = "%"
experimental_result = 2

[[record]]
compound = "CC1=C(C(=O)OCc2ccccc2)C(c2ccoc2)NC(=S)N1 (racemic)"
unit_annotation = "%"
experimental_result = 16

